biological target: T1, human CCR8 (human, UniProt P51685 1-355); experiment: flow cytometry on 293F-hCCR8 cells
T1 construct: whole, on cells; the cell line is named under assay; also called hCCR8
T1 sequence (P51685 whole entry): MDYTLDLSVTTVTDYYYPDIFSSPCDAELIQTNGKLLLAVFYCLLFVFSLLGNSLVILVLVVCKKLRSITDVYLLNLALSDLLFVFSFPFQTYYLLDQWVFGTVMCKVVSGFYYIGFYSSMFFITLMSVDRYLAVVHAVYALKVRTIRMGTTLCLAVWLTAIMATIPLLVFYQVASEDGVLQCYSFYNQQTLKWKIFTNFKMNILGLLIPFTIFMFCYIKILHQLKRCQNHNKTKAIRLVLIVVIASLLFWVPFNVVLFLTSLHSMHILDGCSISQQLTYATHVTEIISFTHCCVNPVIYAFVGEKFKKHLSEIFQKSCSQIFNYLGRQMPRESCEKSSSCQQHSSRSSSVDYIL
What EC50 was measured for each of the following?
Answers are plain numbers, in µg/mL.

In the examples that follow, each entry is paired with its recorded EC50.
{"binder": "27B9-1G3_hzH2L1_hIgG1 (antibody, V domains shown, Humanized, hIgG1/K; hzVH02 + hzVL01) VH: QVQLVQSGAEVKKPGSSVKVSCKASGYSFTGYNMNWVRQAPGQGLEWMGNIDPYYGGTNYNQKFKGRVTITADKSTSTAYMELSSLRSEDTAVYYCARETWFITTGVIKKGFYFDYWGQGTTVTVSS VL: EIVLTQSPATLSLSPGERATLSCSASSIISSNYLHWYQQKPGQAPRLLIYRTSSLASGIPARFSGSGSGTDFTLTISSLEPEDFAVYYCQQGSSIPRTFGGGTKVEIKR", "value-unit": "µg/mL", "EC50": 0.246}
{"binder": "27B9-1G3_hzH4L3_hIgG1 (antibody, V domains shown, Humanized, hIgG1/K; hzVH04 + hzVL03) VH: QVQLVQSGAEVKKPGSSVKVSCKASGYSFTGYNMNWVRQAPGQGLEWMGNIDPYYGGTNYNQKFKGKATITADKSTSTAYMELSSLRSEDTAVYYCARETWFITTGVIKKGFYFDYWGQGTTVTVSS VL: EIVLTQSPATLSLSPGERATLACSASSIISSNYLHWYQQKPGQSPRLLIYRTSSLASGVPARFSGSGSGTSYTLTISSLEPEDFAVYYCQQGSSIPRTFGGGTKVEIKR", "value-unit": "µg/mL", "EC50": 0.22}
{"binder": "27B9-1G3_hzH3L3_hIgG1 (antibody, V domains shown, Humanized, hIgG1/K; hzVH03 + hzVL03) VH: QVQLVQSGAEVKKPGSSVKVSCKASGGTFSGYNMNWVRQAPGQGLEWMGNIDPYYGGTNYNQKFKGKATITADKSTSTAYMELSSLRSEDTAVYYCARETWFITTGVIKKGFYFDYWGQGTTVTVSS VL: EIVLTQSPATLSLSPGERATLACSASSIISSNYLHWYQQKPGQSPRLLIYRTSSLASGVPARFSGSGSGTSYTLTISSLEPEDFAVYYCQQGSSIPRTFGGGTKVEIKR", "value-unit": "µg/mL", "EC50": 0.198}

Please turn your attention to the following entry.
Inquiry: Retrieve EC50 measured for 27B9-1G3_hIgG1 (antibody, V domains shown, also called hIgG1-subclass chimeric antibody 27B9-1G3) VH: EIQLQQSGPELEKPGASVKISCKASGYSFTGYNMNWVKKSNGKSLEWIGNIDPYYGGTNYNQKFKGKATLTVDKSSSTAYMQLKSLTSEDSAVYYCARETWFITTGVIKKGFYFDYWGQGTTLTVSS VL: EIVLTQSPTTMAASPGEKITLACSASSIISSNYLHWYQQKPGFSPKLLIYRTSSLASGVPARFSGSGSGTSYSLTIGTMEAEDVATYYCQQGSSIPRTFGGGTKLEIKR and print it.
Reply text: 0.139
